Where do these numbers come from? They come from the NIST ThermoML archive (doi:10.1021/je901063s).

Test: activity coefficient (dimensionless); of the first substance listed, at infinite dilution; xn = mol fraction of the nth substance listed
Settings: 353.15 K; 101 kPa; Liquid; inert gas stripping, headspace analysis in two variants - the classical and the relative, Rayleigh distillation, and circulation still; x1 = 0
Use 100 as the dividing line for activity coefficient, with the line itself on the met side and lower values as not met.

molecule | label
CCC(C)CO (stereo unspecified) [2-methyl-1-butanol] + O | met

Task item: Item CCCC(C)O (stereo unspecified) [pentan-2-ol] + O with activity coefficient of 100 or above?
Reply: met

Task item: Item CCC(O)CC [3-pentanol] + O with activity coefficient of 100 or above?
Reply: met

Task item: Item CC(C)CCO [3-methylbutan-1-ol] + O with activity coefficient of 100 or above?
Reply: met

Task item: Item CC(C)C(C)O (stereo unspecified) [3-methyl-2-butanol] + O with activity coefficient of 100 or above?
Reply: met

Task item: Item CCC(C)(C)O [2-methylbutan-2-ol] + O with activity coefficient of 100 or above?
Reply: not met
